- target-under-test: T1, Human EphA2 (Ecto), C-terminal polyHis (Human, UniProt P29317 24-537)
- T1 construct: extracellular domain; also called EPH receptor A2; ephrin type-A receptor 2
- T1 sequence (P29317 24-537): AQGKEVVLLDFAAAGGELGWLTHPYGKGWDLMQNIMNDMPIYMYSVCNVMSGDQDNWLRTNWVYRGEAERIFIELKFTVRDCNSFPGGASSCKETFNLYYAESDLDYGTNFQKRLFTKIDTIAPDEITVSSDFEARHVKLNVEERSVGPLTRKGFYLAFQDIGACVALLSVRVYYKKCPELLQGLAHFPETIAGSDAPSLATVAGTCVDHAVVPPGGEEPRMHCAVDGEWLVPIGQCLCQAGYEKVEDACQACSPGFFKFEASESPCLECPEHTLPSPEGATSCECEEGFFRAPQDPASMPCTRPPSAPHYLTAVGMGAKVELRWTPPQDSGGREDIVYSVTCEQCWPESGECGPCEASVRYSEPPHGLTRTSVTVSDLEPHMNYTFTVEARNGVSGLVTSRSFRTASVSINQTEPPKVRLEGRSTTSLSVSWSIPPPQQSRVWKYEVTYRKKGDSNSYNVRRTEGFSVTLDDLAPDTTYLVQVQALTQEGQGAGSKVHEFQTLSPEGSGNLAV
- assay-notes: fluorescence polarisation competition; competitor fluorescent Compound 66
Starred links: 1 amine or outer side, 2 acyl side, 3 side chain; linkers in the order of their positions; H or OH if unused. Positions of bridges follow the written chain, without caps; N, C: chain ends. Non-standard residues stand in square brackets, D forms with d. Primed or numbered codes have the meaning given here. No end group written: not given here. TBMB′ = 1,3,5-tris(bromomethyl)benzene, 1,3,5-tris(methylene)benzene core, three thioethers to Cys; 4FlPro = 4-fluoropyrrolidine-2-carboxylic acid (4-fluoroproline); Bip = N[C@@H](Cc1ccc(-c2ccccc2)cc1)C(=O)O; 1Nal = N[C@@H](Cc1cccc2ccccc12)C(=O)O; TBMB = c1c(C[*:1])cc(C[*:3])cc1C[*:2]; Hyp = O=C(O)[C@@H]1C[C@@H](O)CN1; hArg = N=C(N)NCCCC[C@H](N)C(=O)O; Tle = CC(C)(C)[C@H](N)C(=O)O; Aze = O=C(O)[C@@H]1CCN1; Aib = CC(C)(N)C(=O)O; Sar = CNCC(=O)O
In this section we review reported Ki values for a set of binders.
endpoint: Ki (nM)

>>> observed_value("[Sar][Sar]ACPWGPFWCPVNR[Aze]GC (linker 4-11-18 via TBMB) [Bicycle Compound Number 106 (TBMB scaffold)]")
155
>>> observed_value("ACPWGPMWCPVNRPGCA (linker 2-9-16 via TBMB (inferred), also called Compound 46) [Bicycle Compound Number 46 (TBMB scaffold)]")
95.8
>>> observed_value("[Sar][Sar]ACPWGPFWC[Hyp]VNRPGC (linker 4-11-18 via TBMB′, also called Compound 98) [Bicycle Compound Number 98 (TBMB scaffold)]")
163
>>> observed_value("[Sar][Sar]ACPWGP[Bip]WCPVNRPGC (linker 4-11-18 via TBMB′, also called Compound 88) [Bicycle Compound Number 88 (TBMB scaffold)]")
183
>>> observed_value("[Sar][Sar]ACPWGPFWCPVARPGC (linker 4-11-18 via TBMB) [Bicycle Compound Number 101 (TBMB scaffold)]")
265
>>> observed_value("ACMNDWLCSLGWTCA (linker 2-8-14 via TBMB, also called Compound 24) [Bicycle Compound Number 24 (TBMB scaffold)]")
82.3
>>> observed_value("[Sar][Sar]ACPWG[Aib]F[1Nal]CPVNRPGC (linker 4-11-18 via TBMB) [Bicycle Compound Number 123 (TBMB scaffold)]")
46
>>> observed_value("[Sar][Sar]ACP[1Nal]GPFWCPV[dA][hArg]PGC (linker 4-11-18 via TBMB, also called Sar2-ACP(1Nal)GPFWCPV(D-Ala)(HArg)PGC) [Bicycle Compound Number 133 (TBMB scaffold)]")
3.7
>>> observed_value("[Sar][Sar]ACPWGPFWCPVNRPAC (linker 4-11-18 via TBMB) [Bicycle Compound Number 111 (TBMB scaffold)]")
238
>>> observed_value("[Sar][Sar]ACP[1Nal]GPFWCP[Tle]NRPGC (linker 4-11-18 via TBMB, also called Sar2-ACP(1Nal)GPFWCP(tBuGly)NRPGC) [Bicycle Compound Number 121 (TBMB scaffold)]")
2
>>> observed_value("ACRVSPEYCPFGPVWCA (linker 2-9-16 via TBMB, also called Compound 33) [Bicycle Compound Number 33 (TBMB scaffold)]")
78.5
>>> observed_value("[Sar][Sar]ACPWGPYWCPVNRPGC (linker 4-11-18 via TBMB′, also called Compound 91) [Bicycle Compound Number 91 (TBMB scaffold)]")
138
>>> observed_value("[Sar][Sar]ACPWGPFWCPVNR[4FlPro]GC (linker 4-11-18 via TBMB) [Bicycle Compound Number 109 (TBMB scaffold)]")
184
>>> observed_value("[Sar][Sar]ACPWGPFWC[4FlPro]VNRPGC (linker 4-11-18 via TBMB, also called Compound 99) [Bicycle Compound Number 99 (TBMB scaffold)]")
270
